System: NCI-H1651
protocol.description: relative viability (nuclei count vs DMSO), 5 days (fraction); higher = more cells survive
study.conditions: first compound 8 µM
reported.property: relative viability
Please respond with just the number, no unit label.

{"columns": ["molecule", "relative viability"],
 "data": [
  ["O=c1cc(-c2cccc3c2Sc2ccccc2S3)oc(N2CCOCC2)c1 + O=C(CCCCCCC(=O)Nc1ccccc1)NO [Vorinostat] (partner 1 µM)", 0.578]
]}

Please indicate relative viability recorded for O=c1cc(-c2cccc3c2Sc2ccccc2S3)oc(N2CCOCC2)c1 + CC(=O)Nc1cccc(-n2c(=O)n(C3CC3)c(=O)c3c(Nc4ccc(I)cc4F)n(C)c(=O)c(C)c32)c1 [Trametinib] (partner 0.02 µM)
0.832

Please indicate relative viability recorded for O=c1cc(-c2cccc3c2Sc2ccccc2S3)oc(N2CCOCC2)c1 + CS(=O)(=O)CCNCc1ccc(-c2ccc3ncnc(Nc4ccc(OCc5cccc(F)c5)c(Cl)c4)c3c2)o1 [Lapatinib] (partner 2 µM)
0.953
